system: CP265; assay: qHTS profiling for inhibitors of Plasmodium falciparum proliferation (AID 504749);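 further: 0% = DMSO vehicle and full inhibition = artemisinin control; nearly all actives have a fitted effect of over 60% in size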; conditions: P. falciparum in erythrocytes, SYBR Green DNA, 72 h; series mostly up to 28.7 µM
Records with an inconclusive call do not appear. The source made the active and inactive calls. The call rests on the fitted dose curve; in most records, active means well fitted inhibition curve with a large enough effect; inconclusive means small, poorly fitted or top-dose-only effect; inactive means flat fitted curve, though single readings scatter.
REPORTED METRIC: outcome

>  <COMPOUND>
CS(=O)(=O)c1ccc(C2=C(c3ccccc3)C(=O)OC2)cc1

>  <TARGET UNDER TEST>
CP265

>  <ASSAY RESULT>
inactive

$$$$
>  <COMPOUND>
NS(=O)(=O)c1cc(Cl)c(Cl)c(S(N)(=O)=O)c1

>  <TARGET UNDER TEST>
CP265

>  <ASSAY RESULT>
inactive

$$$$
>  <COMPOUND>
COc1ccnc(CS(=O)c2nc3ccc(OC(F)F)cc3[nH]2)c1OC (stereo not drawn)

>  <TARGET UNDER TEST>
CP265

>  <ASSAY RESULT>
inactive

$$$$

----------
Test: S16 Schwann cell PMP22 intronic element firefly luciferase assay (AID 624032); further: nearly all actives have a fitted effect of over 30% in size
Settings: S16 rat Schwann cells, PMP22 element FLuc, 24 h; series mostly up to 57.5 µM
Method: Charcot-Marie-Tooth-Association [CMTA] National Center for Advancing Translational Sciences [NCATS] […] The FLuc-expressing S16 cells were seeded in white solid 1536-well plates at between 500-750 cells/4uL in DMEM medium containing 10% FBS, w/o phenol red. […] Luminescence was measured on a ViewLux plate reader (Perkin Elmer). The % activity was determined by normalizing to the average readings of PTC124 (a positive control) - treated cells relative to DMSO-treated cells (0% Activity). […]
Records with an inconclusive call do not appear. Activity calls are given as the source filed them. The call rests on the fitted dose curve; in most records, active means well fitted inhibition curve with a large enough effect; inconclusive means small, poorly fitted or top-dose-only effect; inactive means no such curve, though single readings can be large or run the other way.
// classify into 1 (yes) for active, 0 (no) for inactive

Record request — test call for O=C(O)c1nc(=O)[nH]c(=O)[nH]1
1 (yes)

Record request — test call for COc1c(C)c2c(c(O)c1CC=C(C)CCC(=O)OCCN1CCOCC1)C(=O)OC2
1 (yes)

Record request — test call for CN1CCN2c3ncccc3Cc3ccccc3C2C1 (configuration not stated)
0 (no)

Record request — test call for COc1cc2c(cc1OC)CC(=O)N(CCCN(C)C[C@H]1Cc3cc(OC)c(OC)cc31)CC2
0 (no)

Record request — test call for NCC1CCC(C(=O)O)CC1 (configuration not stated)
0 (no)

Record request — test call for COc1ccnc(CS(=O)c2nc3ccc(OC(F)F)cc3[nH]2)c1OC (configuration not stated)
0 (no)

Record request — test call for Clc1ccc(COC(Cn2ccnc2)c2ccc(Cl)cc2Cl)c(Cl)c1 (configuration not stated)
1 (yes)

----------
test: qHTS of pediatric cancer cell lines to identify multiple opportunities for drug repurposing: Primary screen for SK-N-SH cells (AID 1347098); settings: SK-N-SH viability, CellTiter-Glo luminescence, 48 h; series mostly up to 57 µM; further: nearly all actives have a fitted effect of over 65% in size; further: potency means the concentration at half of the fitted maximal effect
Records with an inconclusive call do not appear. The source made the active and inactive calls. Calls follow the shape of the dose curve; as a rule, active = well fitted cell-killing curve with a large enough effect; inconclusive = small, poorly fitted or top-dose-only effect; inactive = no such curve, though single readings can be large or run the other way.
REPORTED METRIC: Potency

>  <MOLECULE>
CCC(=C(c1ccc(O)cc1)c1ccc(OCCNC)cc1)c1ccccc1

>  <REPORTED METRIC>
Potency

>  <ASSAY RESULT>
34.1 µM (active)

$$$$
>  <MOLECULE>
COc1cc2nccc(Oc3ccc(NC(=O)Nc4cc(C)on4)c(Cl)c3)c2cc1OC

>  <REPORTED METRIC>
Potency

>  <ASSAY RESULT>
19.2 µM (active)

$$$$
>  <MOLECULE>
O=C(O)Cc1cccc(OCCCN(Cc2cccc(C(F)(F)F)c2Cl)CC(c2ccccc2)c2ccccc2)c1

>  <REPORTED METRIC>
Potency

>  <ASSAY RESULT>
19.2 µM (active)

$$$$
>  <MOLECULE>
CC(C)C[C@@H](N)[C@H](O)C(=O)N[C@H](C(=O)N[C@H](C(=O)N[C@@H](CC(=O)O)C(=O)O)C(C)C)C(C)C

>  <REPORTED METRIC>
Potency

>  <ASSAY RESULT>
24.1 µM (active)

$$$$
>  <MOLECULE>
CCOC(=O)N1CCN([N+]([O-])=NOc2cc(ON=[N+]([O-])N3CCN(C(=O)OCC)CC3)c([N+](=O)[O-])cc2[N+](=O)[O-])CC1

>  <REPORTED METRIC>
Potency

>  <ASSAY RESULT>
inactive

$$$$

Entry under review: CC[C@@H]([C@H](C)O)n1ncn(-c2ccc(N3CCN(c4ccc(OCC5CO[C@@](Cn6cncn6)(c6ccc(F)cc6F)C5)cc4)CC3)cc2)c1=O (stereo not given in full) . Reported Potency?
inactive

Entry under review: COc1nccc(-c2c(-c3ccc(F)cc3)ncn2C2CCC(O)CC2)n1 (stereo not given) . Reported Potency?
inactive

Entry under review: CCC(=O)NCC[C@@H]1CCc2ccc3c(c21)CCO3 . Reported Potency?
inactive

Entry under review: CN(C)S(=O)(=O)c1ccc2c(c1)C(=Cc1cc3c([nH]1)CCCC3)C(=O)N2 . Reported Potency?
3.83 µM (active)

Entry under review: CN1C(=O)C(Cc2c[nH]c3ccccc23)NC1=S (stereo not given) . Reported Potency?
inactive

Entry under review: Cc1ccccc1C(=O)c1ccc(Nc2ccc(Br)cc2N)cc1Cl . Reported Potency?
inactive

Entry under review: O=c1[nH]nc(OCCCc2ccc(Cl)cc2)c(NCc2cccnc2)c1Br . Reported Potency?
inactive

Entry under review: COc1ccc2ccc(=O)oc2c1CC=C(C)C . Reported Potency?
inactive

Entry under review: O=C(CO)N1CCC(c2[nH]nc(-c3ccc(Cl)cc3)c2-c2ccncn2)CC1 . Reported Potency?
inactive

Entry under review: O=[N+]([O-])c1ccc(Nc2ccccc2-c2ccccc2)c2nonc12 . Reported Potency?
inactive

Entry under review: O=C(c1ccc(F)c(F)c1Nc1ccc(I)cc1F)N1CC(O)([C@H]2CCCCN2)C1 . Reported Potency?
6.07 µM (active)

Entry under review: C[C@H](c1ccc(F)cc1CCCC(=O)O)N(c1cc(F)ccc1F)S(=O)(=O)c1ccc(Cl)cc1 . Reported Potency?
19.2 µM (active)

Entry under review: O=C(CC12CC3CC(CC(C3)C1)C2)Nc1cccc2nc(NCCNCCO)ccc12 . Reported Potency?
24.1 µM (active)

Entry under review: CCCCCOC(=O)Nc1nc(=O)n([C@@H]2O[C@H](C)[C@@H](O)C2O)cc1F (stereo not given in full) . Reported Potency?
inactive

Entry under review: CN1CCC[C@H]1CCO[C@](C)(c1ccccc1)c1ccc(Cl)cc1 . Reported Potency?
30.4 µM (active)
